# Study Target: Enoyl-(Acyl-carrier-protein) reductase II (Streptococcus agalactiae serotype V (strain ATCC BAA-611 / 2603 V/R))
# Sequence (Q8E1K8 whole entry): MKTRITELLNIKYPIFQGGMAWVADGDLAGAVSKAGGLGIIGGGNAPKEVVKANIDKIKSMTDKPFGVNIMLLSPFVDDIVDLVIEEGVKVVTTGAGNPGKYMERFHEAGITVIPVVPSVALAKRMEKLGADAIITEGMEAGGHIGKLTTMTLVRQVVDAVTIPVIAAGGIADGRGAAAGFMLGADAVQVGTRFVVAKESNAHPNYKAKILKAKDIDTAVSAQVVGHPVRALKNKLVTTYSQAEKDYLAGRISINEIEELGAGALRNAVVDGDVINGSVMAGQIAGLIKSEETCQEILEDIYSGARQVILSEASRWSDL
# Protocol Text: Inhibition of Streptococcus agalactiae WB1445 FabK in presence of t-O-NAC and NADH up to 1 min by spectrophotometric analysis
# label = Met if IC50 < 3 µM else Not met

Example entries and their recorded answers appear below.
Query Smiles | Category
Cc1nccn1CCCCCCOc1ccc2ccc(=O)oc2c1 | Not met
Cc1nccn1CCCCCCCCCCOc1ccc2ccc(=O)oc2c1 | Not met
Cc1nccn1CCCCOc1ccc2ccc(=O)oc2c1 | Not met
O=c1ccc2ccc(OCCCCCCCCCCn3ccnc3)cc2o1 | Not met
Cc1nccn1CCCCCCCCOc1ccc2ccc(=O)oc2c1 | Met

Prompt: Could you please tell me whether IC50 recorded for Cc1cn(CCCCCCCCCCOc2ccc3ccc(=O)oc3c2)cn1 is less than 3 µM?
Completion: Not met

----------
# Protocol Text: Inhibition of Escherichia coli ATCC 35150 FabI in presence of t-O-NAC and NADH up to 1 min by spectrophotometric analysis
Property Name: IC50 (µM)
Numeric answer only, unit µM assumed.

Sample records with IC50:
Query Smiles | IC50 [µM]
Cc1cn(CCCCCCCCOc2ccc3ccc(=O)oc3c2)cn1 | 117
Cc1cn(CCCCCCCCCCOc2ccc3ccc(=O)oc3c2)cn1 | 115

For O=c1ccc2ccc(OCCCCCCCCn3cncn3)cc2o1 the molecule record lists IC50 as 79.5

For Cc1nccn1CCCCCCOc1ccc2ccc(=O)oc2c1 the molecule record lists IC50 as 1.2

// field: IC50; key: O=c1ccc2ccc(OCCCCCCCCn3ccnc3)cc2o1 ; value = 158

IC50 measured on Cc1nccn1CCCCCCCCCCOc1ccc2ccc(=O)oc2c1 = 108

Notebook: Cc1nccn1CCCCOc1ccc2ccc(=O)oc2c1 , IC50 read as 4.46

For Cc1cn(CCCCCCOc2ccc3ccc(=O)oc3c2)cn1 the molecule record lists IC50 as 1.35

Quick note, IC50 for Cc1nccn1CCCCCCCCOc1ccc2ccc(=O)oc2c1 landed at 112

----------
# Study Target: Enoyl-(Acyl-carrier-protein) reductase II (Streptococcus agalactiae serotype V (strain ATCC BAA-611 / 2603 V/R))
# Protocol Text: Inhibition of Streptococcus agalactiae WB1445 FabK in presence of t-O-NAC and NADH up to 1 min by spectrophotometric analysis
pIC50 overview
Reminder that pIC50 is minus the log10 of a molar concentration.

Query Smiles | Measured Number
O=c1ccc2ccc(OCCCCCCCCn3ccnc3)cc2o1 | 5.56
O=c1ccc2ccc(OCCCCCCCCn3cncn3)cc2o1 | 5.11

Data point: Cc1cn(CCCCCCOc2ccc3ccc(=O)oc3c2)cn1 ; pIC50 = 5.44

Consider Cc1cn(CCCCCCCCOc2ccc3ccc(=O)oc3c2)cn1 . Its measured pIC50 is 5.76

All figures here come from ChEMBL document CHEMBL4251599.
